Measured loss in response level of VHH 2 relative to VHH 2 injected alone, listed per entry for reference.
biological target: T1, human FOLR1 recombinant protein (extracellular domain of human folate receptor alpha) (human, UniProt P15328 25-233); assay: SPR dual injection on immobilized human FOLR1, 250 nM; competitor (1st VHH, saturating) A5; by the legend the value is of the 2nd VHH
T1 construct: Bought recombinant protein (Sino Biological); also called hFOLR1; FR-alpha
T1 sequence (P15328 25-233): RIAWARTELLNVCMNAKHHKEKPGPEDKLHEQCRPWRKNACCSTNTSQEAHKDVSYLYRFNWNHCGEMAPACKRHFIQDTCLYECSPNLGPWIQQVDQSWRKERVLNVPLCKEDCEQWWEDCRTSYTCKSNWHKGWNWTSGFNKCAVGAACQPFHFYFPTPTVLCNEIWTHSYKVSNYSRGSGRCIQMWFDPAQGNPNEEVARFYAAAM
Unit % implied. Number only.

Here is how some binders turned out for loss in response level of VHH 2 relative to VHH 2 injected alone.
>  <BINDER>
His6-tagged variant of VHH A4 (VHH, Purified, unlabelled; also called A4 His6-tag) VHH: DVQLVESGGGLARAGGSLRLSCAASGRAFSSTYAMGWFRQAPGKEREFVADINWSEGSPMYIDSVKDRFTISRDNARNSLYLQMNSLKSEDTAVYYCAARRFGQGYEYWGQGTQVTVSS

>  <OUTPUT_UNIT>
%

>  <EXPERIMENTAL_VALUE>
-91

$$$$
>  <BINDER>
His6-tagged variant of VHH A2 (VHH, Purified, unlabelled; also called A2 His6-tag) VHH: DVQLVESGGGLVQAGGSLRLSCAADEMKFSNYDLAWYRRAPGKQRELAAIITSGGSTNYPDSVKGRFTISRDNAKNTVYLEMNSLKPEDTAVYYCNALRPWPQFSDYWGQGTQVTVSS

>  <OUTPUT_UNIT>
%

>  <EXPERIMENTAL_VALUE>
-86

$$$$
>  <BINDER>
His6-tagged variant of VHH A1 (VHH, Purified, unlabelled; also called A1 His6-tag) VHH: DVQLVESGGGLVQPGGSLRLSCAASESIFSRNHMSWYRQAPGKQRELAAIITSDGNTNYPDSVKGRFTISRDNAKNTVYLQMNSLKPEDTAVYYCNTFGRSVAGFYDYWGQGTQVTVSS

>  <OUTPUT_UNIT>
%

>  <EXPERIMENTAL_VALUE>
-91

$$$$

Next binder, loss in response level of VHH 2 relative to VHH 2 injected alone to be filled in.
Lookup: Look up and report measured loss in response level of VHH 2 relative to VHH 2 injected alone for this entry: His6-tagged variant of VHH A3 (VHH, Purified, unlabelled; also called A3 His6-tag) VHH: DVQLVESGGGLVQAGGSLRLSCGVSGNMFSMNLMGWYRQPPGKERDWVAVITKDGSTNYADSVKGRFTISRDNAKNTVSLQMNSLKPEDTAVYYCNVQDGSGWIRAWGWDWGQGTQVTVSS
Found: -89
